HPLC analysis result, RH90% by entry:
Experiment: Stability test of crystal samples placed open in the air (illumination, heating, humidity), HPLC analysis
Assay type: physicochemical
Conditions: humidity RH 90%, open in air, Time 5 days; hydrochloride
Where a name gives a salt, the structure may show the parent alone.
Reply with just the number (in %).

Record excerpt, results attached:
COc1cc2c(cc1OC)CC(=O)N(CCCN(C)C[C@H]1Cc3cc(OC)c(OC)cc31)CC2 [Ivabradine hydrochloride 20080911, Ivabradine hydrochloride] :: 99.10
COc1cc2c(cc1OC)CC(=O)N(CCCN(C)C[C@H]1Cc3cc(OC)c(OC)cc31)CC2 [Ivabradine hydrochloride 20080908, Ivabradine hydrochloride] :: 99.03
COc1cc2c(cc1OC)CC(=O)N(CCCN(C)C[C@H]1Cc3cc(OC)c(OC)cc31)CC2 [Ivabradine sulfate 20080618, Ivabradine hydrochloride] :: 99.23

Prompt: Give the measured HPLC analysis result, RH90% for COc1cc2c(cc1OC)CC(=O)N(CCCN(C)C[C@H]1Cc3cc(OC)c(OC)cc31)CC2 [Ivabradine hydrochloride 20080912, Ivabradine hydrochloride]
Completion: 99.20

---

HPLC analysis result, RH90% by entry:
Assay: Stability test of crystal samples placed open in the air (illumination, heating, humidity), HPLC analysis
Format: physicochemical
Details: humidity RH 90%, open in air, Time 10 days; hydrochloride
Structures can show the parent of a compound that is named as a salt.
Reply with just the number (in %).

COc1cc2c(cc1OC)CC(=O)N(CCCN(C)C[C@H]1Cc3cc(OC)c(OC)cc31)CC2 [Ivabradine hydrochloride 20080908, Ivabradine hydrochloride] :: 98.61
COc1cc2c(cc1OC)CC(=O)N(CCCN(C)C[C@H]1Cc3cc(OC)c(OC)cc31)CC2 [Ivabradine sulfate 20080618, Ivabradine hydrochloride] :: 99.00
COc1cc2c(cc1OC)CC(=O)N(CCCN(C)C[C@H]1Cc3cc(OC)c(OC)cc31)CC2 [Ivabradine hydrochloride 20080912, Ivabradine hydrochloride] :: 98.91

Now take the following compound into account.
Prompt: Give the measured HPLC analysis result, RH90% for COc1cc2c(cc1OC)CC(=O)N(CCCN(C)C[C@H]1Cc3cc(OC)c(OC)cc31)CC2 [Ivabradine hydrochloride 20080911, Ivabradine hydrochloride]
Completion: 98.42

---

Assay: Stability test of crystal samples placed open in the air (illumination, heating, humidity), HPLC analysis
Format: physicochemical
Conditions: heating 60° C., open in air, Time 5 days; hydrochloride
Counter-ions that a name gives are not always drawn.
HPLC analysis result, 60° C. by entry:
Reply with just the number (in %).

Record excerpt, results attached:
COc1cc2c(cc1OC)CC(=O)N(CCCN(C)C[C@H]1Cc3cc(OC)c(OC)cc31)CC2 [Ivabradine hydrochloride 20080908, Ivabradine hydrochloride] :: 98.74
COc1cc2c(cc1OC)CC(=O)N(CCCN(C)C[C@H]1Cc3cc(OC)c(OC)cc31)CC2 [Ivabradine hydrochloride 20080911, Ivabradine hydrochloride] :: 99.31
COc1cc2c(cc1OC)CC(=O)N(CCCN(C)C[C@H]1Cc3cc(OC)c(OC)cc31)CC2 [Ivabradine sulfate 20080618, Ivabradine hydrochloride] :: 99.50

Now take the following molecule into account.
Prompt: Give the measured HPLC analysis result, 60° C. for COc1cc2c(cc1OC)CC(=O)N(CCCN(C)C[C@H]1Cc3cc(OC)c(OC)cc31)CC2 [Ivabradine hydrochloride 20080912, Ivabradine hydrochloride]
Completion: 99.36

---

HPLC analysis result, RH90% by entry:
Assay: Stability test of crystal samples placed open in the air (illumination, heating, humidity), HPLC analysis
Format: physicochemical
Settings: humidity RH 90%, open in air, Time 0 day; hydrochloride
Where a name gives a salt, the structure may show the parent alone.
Reply with just the number (in %).

Record excerpt, results attached:
COc1cc2c(cc1OC)CC(=O)N(CCCN(C)C[C@H]1Cc3cc(OC)c(OC)cc31)CC2 [Ivabradine sulfate 20080618, Ivabradine hydrochloride] :: 99.54
COc1cc2c(cc1OC)CC(=O)N(CCCN(C)C[C@H]1Cc3cc(OC)c(OC)cc31)CC2 [Ivabradine hydrochloride 20080911, Ivabradine hydrochloride] :: 99.55
COc1cc2c(cc1OC)CC(=O)N(CCCN(C)C[C@H]1Cc3cc(OC)c(OC)cc31)CC2 [Ivabradine hydrochloride 20080908, Ivabradine hydrochloride] :: 99.56

Now take the following molecule into account.
Prompt: Give the measured HPLC analysis result, RH90% for COc1cc2c(cc1OC)CC(=O)N(CCCN(C)C[C@H]1Cc3cc(OC)c(OC)cc31)CC2 [Ivabradine hydrochloride 20080912, Ivabradine hydrochloride]
Completion: 99.57

---

Assay: Stability test of crystal samples placed open in the air (illumination, heating, humidity), HPLC analysis
Type: physicochemical
Settings: illumination 4500 Lux, open in air, Time 0 day; hydrochloride
Counter-ions that a name gives are not always drawn.
HPLC analysis result, Light by entry:

Record excerpt, results attached:
COc1cc2c(cc1OC)CC(=O)N(CCCN(C)C[C@H]1Cc3cc(OC)c(OC)cc31)CC2 [Ivabradine sulfate 20080618, Ivabradine hydrochloride] :: 99.54%
COc1cc2c(cc1OC)CC(=O)N(CCCN(C)C[C@H]1Cc3cc(OC)c(OC)cc31)CC2 [Ivabradine hydrochloride 20080912, Ivabradine hydrochloride] :: 99.57%
COc1cc2c(cc1OC)CC(=O)N(CCCN(C)C[C@H]1Cc3cc(OC)c(OC)cc31)CC2 [Ivabradine hydrochloride 20080911, Ivabradine hydrochloride] :: 99.55%

Now take the following molecule into account.
Prompt: Give the measured HPLC analysis result, Light for COc1cc2c(cc1OC)CC(=O)N(CCCN(C)C[C@H]1Cc3cc(OC)c(OC)cc31)CC2 [Ivabradine hydrochloride 20080908, Ivabradine hydrochloride]
Completion: 99.56%

---

Experiment: Stability test of crystal samples placed open in the air (illumination, heating, humidity), HPLC analysis
Assay type: physicochemical
Conditions: heating 60° C., open in air, Time 10 days; hydrochloride
Structures can show the parent of a compound that is named as a salt.
quantity: HPLC analysis result, 60° C.
Don't forget the unit after the number, please.

Prompt: Give the measured HPLC analysis result, 60° C. for COc1cc2c(cc1OC)CC(=O)N(CCCN(C)C[C@H]1Cc3cc(OC)c(OC)cc31)CC2 [Ivabradine sulfate 20080618, Ivabradine hydrochloride]
Completion: 99.46%

Prompt: Give the measured HPLC analysis result, 60° C. for COc1cc2c(cc1OC)CC(=O)N(CCCN(C)C[C@H]1Cc3cc(OC)c(OC)cc31)CC2 [Ivabradine hydrochloride 20080911, Ivabradine hydrochloride]
Completion: 99.12%

Prompt: Give the measured HPLC analysis result, 60° C. for COc1cc2c(cc1OC)CC(=O)N(CCCN(C)C[C@H]1Cc3cc(OC)c(OC)cc31)CC2 [Ivabradine hydrochloride 20080912, Ivabradine hydrochloride]
Completion: 99.05%

Prompt: Give the measured HPLC analysis result, 60° C. for COc1cc2c(cc1OC)CC(=O)N(CCCN(C)C[C@H]1Cc3cc(OC)c(OC)cc31)CC2 [Ivabradine hydrochloride 20080908, Ivabradine hydrochloride]
Completion: 99.04%

---

Assay: Stability test of crystal samples placed open in the air (illumination, heating, humidity), HPLC analysis
Type: physicochemical
Conditions: heating 60° C., open in air, Time 0 day; hydrochloride
Counter-ions that a name gives are not always drawn.
HPLC analysis result, 60° C. by entry:
Reply with just the number (in %).

COc1cc2c(cc1OC)CC(=O)N(CCCN(C)C[C@H]1Cc3cc(OC)c(OC)cc31)CC2 [Ivabradine sulfate 20080618, Ivabradine hydrochloride] :: 99.54
COc1cc2c(cc1OC)CC(=O)N(CCCN(C)C[C@H]1Cc3cc(OC)c(OC)cc31)CC2 [Ivabradine hydrochloride 20080911, Ivabradine hydrochloride] :: 99.55
COc1cc2c(cc1OC)CC(=O)N(CCCN(C)C[C@H]1Cc3cc(OC)c(OC)cc31)CC2 [Ivabradine hydrochloride 20080908, Ivabradine hydrochloride] :: 99.56

Now take the following compound into account.
Prompt: Give the measured HPLC analysis result, 60° C. for COc1cc2c(cc1OC)CC(=O)N(CCCN(C)C[C@H]1Cc3cc(OC)c(OC)cc31)CC2 [Ivabradine hydrochloride 20080912, Ivabradine hydrochloride]
Completion: 99.57

---

Assay: Stability test of crystal samples placed open in the air (illumination, heating, humidity), HPLC analysis
Format: physicochemical
Conditions: illumination 4500 Lux, open in air, Time 10 days; hydrochloride
Counter-ions that a name gives are not always drawn.
quantity: HPLC analysis result, Light
Don't forget the unit after the number, please.

COc1cc2c(cc1OC)CC(=O)N(CCCN(C)C[C@H]1Cc3cc(OC)c(OC)cc31)CC2 [Ivabradine hydrochloride 20080912, Ivabradine hydrochloride] :: 98.87%
COc1cc2c(cc1OC)CC(=O)N(CCCN(C)C[C@H]1Cc3cc(OC)c(OC)cc31)CC2 [Ivabradine hydrochloride 20080908, Ivabradine hydrochloride] :: 94.91%
COc1cc2c(cc1OC)CC(=O)N(CCCN(C)C[C@H]1Cc3cc(OC)c(OC)cc31)CC2 [Ivabradine hydrochloride 20080911, Ivabradine hydrochloride] :: 98.07%

Now take the following compound into account.
Prompt: Give the measured HPLC analysis result, Light for COc1cc2c(cc1OC)CC(=O)N(CCCN(C)C[C@H]1Cc3cc(OC)c(OC)cc31)CC2 [Ivabradine sulfate 20080618, Ivabradine hydrochloride]
Completion: 99.42%
